Would you mind telling me the reported EC50 of each entry?
system: HBV rcDNA in HepDE19 cells; assay: HepDE19 assay with bDNA quantitation of HBV rcDNA; format: cell-based, hepatitis B virus; conditions: Hepatitis B virus, HepDE19, HepDE19 assay, inhibition of rcDNA formation, bDNA quantitation; read-out: DE-19bDNA EC50

Query block: Form field - read-out: EC50; system: HBV rcDNA in HepDE19 cells; submitted item: CN(C(=O)c1ccc2[nH]ncc2c1)C1COCc2[nH]c(=O)c3cc(F)ccc3c21 (single isomer, unassigned) [Compound 449]
Result block: 5.6 µM

Query block: Form field - read-out: EC50; system: HBV rcDNA in HepDE19 cells; submitted item: CCN(C(=O)c1cn2cc(Cl)ccc2n1)[C@@H]1COCc2[nH]c(=O)c3cc(F)ccc3c21 [Compound 53]
Result block: 2.5 µM

Query block: Form field - read-out: EC50; system: HBV rcDNA in HepDE19 cells; submitted item: [2H][C@@]1(N(C(=O)c2cc3sc(Cl)cc3[nH]2)[13C]([2H])([2H])[2H])COCc2[nH]c(=O)c3cc(F)c(F)cc3c21 [Compound 516]
Result block: 0.01 µM

Query block: Form field - read-out: EC50; system: HBV rcDNA in HepDE19 cells; submitted item: CN(C(=O)c1cnn(C)c1)[C@@H]1COCc2[nH]c(=O)c3cc(F)c(F)cc3c21 [Compound 188]
Result block: 18.3 µM

Query block: Form field - read-out: EC50; system: HBV rcDNA in HepDE19 cells; submitted item: CN(C(=O)c1ccc2nn(C(F)F)c(Cl)c2c1)[C@@H]1COCc2[nH]c(=O)c3cc(F)c(F)cc3c21 [Compound 360]
Result block: 0.12 µM

Query block: Form field - read-out: EC50; system: HBV rcDNA in HepDE19 cells; submitted item: CN(C(=O)c1cccc(F)c1)[C@@H]1COCc2[nH]c(=O)c3cc(F)c(F)cc3c21 [Compound 127]
Result block: 0.38 µM

Query block: Form field - read-out: EC50; system: HBV rcDNA in HepDE19 cells; submitted item: CN(C(=O)c1cnn(C(C)(C)C)c1)[C@@H]1COCc2[nH]c(=O)c3cc(F)c(F)cc3c21 [Compound 196]
Result block: 3.1 µM
